Hey, just so you know, these numbers are from patent US9434684B2.

What melting point was measured for each of the following?

In: What value of measured melting point is listed for O=C(NC/C(=N\OCC1CC1)c1ncc(C(F)(F)F)cc1Cl)c1ccccc1C(F)(F)F ?
Out: 98 to 101 °C

In: What value of measured melting point is listed for O=C(NC/C(=N/OCC1CC1)c1ncc(C(F)(F)F)cc1Cl)c1ccccc1C(F)(F)F ?
Out: 73 to 74 °C

In: What value of measured melting point is listed for CC(C)O/N=C(\CNC(=O)c1ccccc1C(F)(F)F)c1ncc(Cl)cc1Cl ?
Out: 54 to 57 °C

In: What value of measured melting point is listed for CON=C(CN(C(=O)c1ccccc1C(F)(F)F)C1CC1)c1ncc(Cl)cc1Cl ?
Out: 75 to 77 °C

In: What value of measured melting point is listed for CO/N=C(/CNC(=O)c1ccccc1C(F)(F)F)c1ncc(Cl)cc1Cl ?
Out: 88 to 89 °C

In: What value of measured melting point is listed for CC(C)O/N=C(\CNC(=O)c1ccccc1C(F)(F)F)c1ncc(C(F)(F)F)cc1Cl ?
Out: 81 to 83 °C

In: What value of measured melting point is listed for CC(C)O/N=C(/CNC(=O)c1ccccc1C(F)(F)F)c1ncc(C(F)(F)F)cc1Cl ?
Out: 97 to 98 °C

In: What value of measured melting point is listed for CCO/N=C(/CNC(=O)c1ccccc1C(F)(F)F)c1ncc(C(F)(F)F)cc1Cl ?
Out: 60 to 62 °C
